Observable: melting point (°C)

Compound: COc1ccc(CCC(=O)Nc2ccccc2C(=O)O)cc1OC
melting point (°C): 137
//
Compound: O=c1ccc(-c2ccc(Cc3nn[nH]n3)cc2)cn1Cc1ccc(Cl)cc1
melting point (°C): 231
//
Compound: COc1cc(N)c(Cl)cc1C(=O)NC1CCN(CCC(O)C(=O)c2ccc(F)cc2)CC1OC (stereo not given)
melting point (°C): 146
//
Compound: Cc1ccccc1Oc1cccc(NC(=O)c2ccn3c2CSC3c2cccnc2)c1 (stereo not given)
melting point (°C): 180

====

Known melting point of a selection of molecules

Molecule: COc1cc(C)nc(-n2nc(C)n(NS(=O)(=O)c3ccccc3OC(F)(F)F)c2=O)n1
melting point: 248 °C
//
Molecule: CC1SC(=O)NN=C1c1ccc2c(c1)C(=Cc1ccccc1O)C(=O)N2 (stereo not given)
melting point: 233 °C
//
Molecule: COc1cc(N)c(Cl)cc1C(=O)NCC1CCN(CCCCCNC(=O)c2ccc(Cl)cc2)CC1
melting point: 196 to 198 °C
//
Molecule: O=C1c2ccccc2CN1C1CCN(c2ccc(Cc3ccccc3)cc2)CC1
melting point: 151 to 155 °C
//
Molecule: O=C1N(c2ccccc2)c2ccccc2C1(Cc1ccccn1)Cc1ccccn1
melting point: 107 to 111 °C
//
Molecule: Cc1c(OCC(=O)O)ccc2c(=O)c3ccccc3oc12
melting point: 244 to 247 °C

Query: Assign melting point to the following record: O=C(O)C(CCCN1C(=O)c2ccccc2S1(=O)=O)NS(=O)(=O)c1ccc(-c2ccc(Cl)cc2)cc1 (stereo not given)
Response: 177 to 179 °C

Query: Assign melting point to the following record: CCOC(=O)c1nn(-c2ccccc2)c(=O)c2c1c1ccc(Cl)cc1n2C
Response: 216 to 218 °C

Query: Assign melting point to the following record: COCCc1nc2c(N)nc3ccccc3c2n1Cc1ccccc1
Response: 202 to 204 °C

Query: Assign melting point to the following record: COC(=O)COc1ccc2cc(-c3csc(-c4ccccc4)n3)ccc2c1Br
Response: 156 to 159 °C

Query: Assign melting point to the following record: FC(F)(F)c1onc(-c2ccc(Cl)o2)c1-c1ccccc1
Response: 55 to 57 °C

Query: Assign melting point to the following record: NS(=O)(=O)c1cccc(NC(=O)c2cnn3c(C(F)(F)F)cc(-c4ccc(C(F)(F)F)c(Cl)c4)nc23)c1
Response: 287 °C

Query: Assign melting point to the following record: CN[C@H]1CC[C@H](CO)CC1
Response: 87 to 88 °C

Query: Assign melting point to the following record: CCCn1c(CCOC)nc2c(N)nc3cc(OC4CCN(C(=O)NC(C)C)CC4)ccc3c21
Response: 176 to 179 °C

Query: Assign melting point to the following record: NC(=O)Cc1cc(Oc2ccc3c(ccn3C(=O)Nc3ccc(N4CCS(=O)(=O)CC4)c(C(F)(F)F)c3)c2)ncn1
Response: 284 to 285 °C

Query: Assign melting point to the following record: CN(CP(=O)(O)O)C1CCS(=O)(=O)C1 (stereo not given)
Response: 222 to 225 °C

Query: Assign melting point to the following record: COC(=O)c1cc(CN=C=S)cc(CN=C=S)c1
Response: 67 to 69 °C

====

Known melting point of a selection of compounds

Compound: CCOC(=O)CN(Cc1ccccc1)c1ncnc2c(N3CCOCC3)nc(N3CCC(N(C)C)CC3)nc12
melting point: 112 to 115 °C

Query: Assign melting point to the following record: CC(CCCCCCCCCC(=O)O)CC(=O)O (stereo not given)
Response: 68.5 to 69.5 °C

Query: Assign melting point to the following record: CCOC(=O)c1cn(CC)c2c(C)c(F)c(F)cc2c1=O
Response: 177 to 180 °C

Query: Assign melting point to the following record: CC1(C)CC(=O)Nc2cc3nc(-c4ccc(S(=O)(=O)O)cc4)[nH]c3cc21
Response: > 300 °C

====

Observable: melting point

# count of solved cases: 6
Molecule: CC(=O)c1cn(-c2c(Cl)cc(C(F)(F)F)cc2Cl)nc1C(F)(F)F
Data Value: 134 °C
//
Molecule: OC1(c2ccccc2)CCN(CCN2CCN(Cc3cc(C(F)(F)F)cc(C(F)(F)F)c3)CC2c2ccc(Cl)c(Cl)c2)CC1 (stereo not given)
Data Value: 71 to 72 °C
//
Molecule: COc1nc(OC)nc(OC(C(=O)OCc2ccccc2)C(C)(C)C)n1 (stereo not given)
Data Value: 63 to 66 °C
//
Molecule: N#Cc1ccc(C(Cc2ccc(OC(F)(F)F)cc2)Cn2cncn2)cc1 (stereo not given)
Data Value: 70 °C
//
Molecule: CCOC(=O)CNc1c(N)c(=O)c1=O
Data Value: 231 to 233 °C
//
Molecule: O=C1OC(=O)c2c1ccc1ncccc21
Data Value: 247 to 250 °C

Query: Assign melting point to the following record: COc1ccc2c(c1)C(c1ccccc1)NN=C2Cc1c(Cl)cncc1Cl (stereo not given)
Response: 175 to 177 °C

Query: Assign melting point to the following record: C#CC1(OC(C)=O)CCC2C3CCC4=CC(=O)CCC4C3C(C(F)F)CC21C (stereo not given)
Response: 157 to 180 °C

Query: Assign melting point to the following record: C=CCOc1nc(N)c2ccccc2n1
Response: 105 to 110 °C

Query: Assign melting point to the following record: COc1ccc(C(CNc2ncnc3c2ncn3C2OC(CO)C(O)C2O)c2ccccc2)cc1 (stereo not given)
Response: 87 to 92 °C

====

Known melting point of a selection of compounds

Compound: CCOC(=O)c1ccc(NC(C)=O)cc1C(=O)OCC
melting point: 118 to 121 °C
--
Compound: O=C1NC(=O)C(Cc2ccc3oc(Cc4ccc(O)cc4)nc3c2)S1 (stereo not given)
melting point: 201 to 204 °C
--
Compound: CC(=O)ON1C(C)(C)CC(OC(=O)c2ccc(C(=O)OC3CC(C)(C)N(OC(C)=O)C(C)(C)C3)cc2)CC1(C)C
melting point: 206 to 212 °C

Query: Assign melting point to the following record: CN=C1SCC(O)(C(c2ccccc2)c2ccccc2)N1C (stereo not given)
Response: 133 to 136 °C

Query: Assign melting point to the following record: CCC1(C(=O)Nc2ccc(OC)cc2)CCCCC1C (stereo not given)
Response: 107 °C

====

Known melting point of a selection of molecules

# count of solved cases: 4
Molecule: CCN1CCN([C@@H](CNS(=O)(=O)c2ccc(OCc3cc(C)nc4ccccc34)cc2)C(=O)NO)CC1
Observable: melting point
Data Value: 150 °C
--
Molecule: CNC(=O)N1CCc2cc(OC)c(OC)c(O)c2C1Cc1cccc(OC)c1 (stereo not given)
Observable: melting point
Data Value: 75 to 80 °C
--
Molecule: CC(=O)OCCC1CCCN(C(=O)c2ccc(NC(=O)c3ccccc3Cl)nc2)c2ccc(Cl)cc21 (stereo not given)
Observable: melting point
Data Value: 151 to 153 °C
--
Molecule: Cc1nc(-n2ccc(O)cc2=O)sc1C(=O)NCc1cccc(F)c1
Observable: melting point
Data Value: 250 to 252 °C

Query: Assign melting point to the following record: Cc1nc2c(N)nc3ccccc3c2n1CCC1(O)CCCCC1
Response: > 252 °C

====

Known melting point of a selection of compounds

# count of solved cases: 2
Compound: CCOC(=O)c1cn(-c2ccc(F)cc2C)c2c(C)c([N+](=O)[O-])c(F)cc2c1=O
melting point: 207 to 209 °C
//
Compound: COC(=O)c1nc2cc(C)ccc2c(O)c1C(=O)OC
melting point: 209 to 211 °C

Attention now shifts to the item below.
Query: Assign melting point to the following record: CN1CCC(Oc2cc(Cl)ccc2C(N)=O)C1 (stereo not given)
Response: 122 to 123 °C

====

Observable: melting point

# count of solved cases: 5
Compound: Cc1nc2c(N)nc3ccccc3c2n1CCC(N)=O
melting point: 237 to 239 °C
--
Compound: Cc1c(C(C)F)nc[nH]c1=O (stereo not given)
melting point: 108 to 109 °C
--
Compound: C#CCCCCCC(=O)Nc1nc2nn(C)cc2c2nc(-c3ccco3)nn12
melting point: 204 to 208 °C
--
Compound: Oc1ccc(C=Cc2ccncc2)cc1
melting point: 272 to 275 °C
--
Compound: Cc1ccccc1-c1c(NC(=O)Nc2c(C)cccc2C(C)C)c(=O)oc2ccc(Cl)cc12
melting point: 237 to 238 °C

Query: Assign melting point to the following record: CCC(CC)N(Cc1ccc(S(C)(=O)=O)cc1)S(=O)(=O)c1ccc(Cl)cc1
Response: 166 to 168 °C

Query: Assign melting point to the following record: N#CC(C(=O)c1ccc(C(F)(F)F)cc1S(=O)(=O)C1CCCCC1)C(=O)C1CC1 (stereo not given)
Response: 60 to 62 °C

Query: Assign melting point to the following record: COc1ccc(-c2ccc3c(c2)S(=O)(=O)NC(C2CCCCC2)N3)c(OC)c1 (stereo not given)
Response: 208 to 213 °C

Query: Assign melting point to the following record: Cc1cccc(NC(=O)NCC(=O)N(CC(=O)N(C)c2ccccc2)c2ccccc2Cl)c1
Response: 180 °C

Query: Assign melting point to the following record: Cc1cccc(OC(=O)N2CCCC2=O)c1
Response: 58 to 59 °C
